# Tested on: KM12 colon
# Test Protocol: NCI tumour cell line growth inhibition, 48 h
Kind request: treat 20 µM as inclusive, so TGI at 20 µM or higher is fulfilled, anything lower is not fulfilled.

Compound	Experimental Target	Group Label
CCC(=O)Sc1ccccc1C(=O)Nc1ccc(Cl)cc1	KM12 colon	fulfilled
Nc1cc2c(cc1[N+](=O)[O-])[nH]c1c(-c3ccccc3)nccc12	KM12 colon	fulfilled
COc1ccc(-c2cc3c4c(nc5ccccc5c4c2)CC(c2cc(OC)c(OC)c(OC)c2)O3)cc1 (stereo not given)	KM12 colon	fulfilled
COC(=O)C1Cc2c(C)cccc2C1=O (stereo not given)	KM12 colon	fulfilled
COc1ccc2c(O)c3[n+](cc2c1OC)CCc1cc2c(cc1-3)OCO2	KM12 colon	fulfilled
Oc1c(OCc2nnc(CCCCCCCCc3nnc(COc4ccc5ccccc5c4O)n3Nc3ccccc3)n2Nc2ccccc2)ccc2ccccc12	KM12 colon	not fulfilled
CS(=O)(=O)c1nccc(-c2c(-c3cccc(OCc4ccc(F)cc4)c3)nc3sccn23)n1	KM12 colon	not fulfilled
O=C(Cc1ccc(Cl)c(Cl)c1)NCCCN1CCN(CCCN2CCCCC2)CC1	KM12 colon	fulfilled
O=C1c2ccn(CCCCN3CCOCC3)c2C(=O)c2c1c(O)c1ccccc1c2O	KM12 colon	not fulfilled
COc1cc2c(cc1OC)C1c3ccccc3C(C#N)(C2)N(C(=O)c2ccccc2)C1O (stereo not given)	KM12 colon	fulfilled

====

# Test system: TK-10 renal
# Test Protocol: NCI tumour cell line growth inhibition, 48 h

Compound	TGI
CCOC(=O)c1cc2cc(Cc3ccc4[nH]c(C(=O)OCC)cc4c3)ccc2[nH]1	31.4 µM
CN1CC(c2ccccc2)=Cc2c1ccc(N)c2N=N	> 100 µM
NC1=CN(CCCO)C2=N/C(=C\c3ccco3)C(=O)N12	> 100 µM
O=C(NO)c1ccc(C(=O)NO)cc1	> 100 µM
CO/N=C(\c1ccccc1)c1cnn(-c2ccccc2)c1N	> 25 µM
O=C1Nc2ccc(F)c3c(OCCO)cc(-c4ccc[nH]4)c1c23	6.42 µM
COc1ccc(NC(=S)NN=C(C)c2cccc(C(C)=NNC(=S)Nc3ccc(OC)cc3)n2)cc1	> 100 µM
O=C(c1ccccc1)c1ccc(-c2ccc(O)cc2)cc1	50.7 µM
N/C(CC/C(N)=N\O)=N\O	> 100 µM
Cc1oc2ccccc2c(=O)c1Cn1nnc2ccccc21	> 100 µM
COc1cc2c(cc1OC)C1c3ccccc3C(C#N)(C2)N(C(=O)c2ccccc2)C1O (stereo unspecified)	> 100 µM

====

# System: KM12 colon
# Test Protocol: NCI tumour cell line growth inhibition, 48 h
Recorded TGI for the following compounds

Compound	Unit Tag	Cmp	TGI
COc1ccc(-n2c(CCCC(=O)O)nc3c2C(=O)c2ccccc2C3=O)cc1	µM	>	100
CC12CC3c4ccccc4CN1C3(c1ccccc1)OC2=O (stereo not given)	µM	>	100
CN(CCNC(=O)c1[nH]nc2c1ccc1ccccc12)CCNC(=O)c1[nH]nc2c1ccc1ccccc12	µM	=	5.3
Oc1c(Cl)c2nccnc2c2ccccc12	µM	>	100
Cc1cccc(C)c1NC(=O)CCC(=O)NNC(=O)c1cc(O)c2ccccc2c1	µM	>	100
ClCCN(CCCl)Cc1ccc(Nc2ccnc3cc(Cl)ccc23)cc1	µM	=	5.57
COc1cc(OC)c(-c2cc(=O)c3c(OC)c(OC)c(OC)c(OC)c3o2)cc1OC	µM	>	100
CCOC(=O)c1ccc(NC2Oc3cc4c(cc3C(c3cc(OC)c(OC)c(OC)c3)C2C)OCO4)cc1 (stereo not given)	µM	=	3.69
Cc1cc(N(CCCl)CCCl)ccc1C=Nc1cccnc1	µM	>	100
c1ccc(COc2ccc(C[P+](c3ccccc3)(c3ccccc3)c3ccccc3)cc2)cc1	µM	=	1.66

====

# Tested on: K-562 leukemia
# Test Protocol: NCI tumour cell line growth inhibition, 48 h
Recorded TGI for the following compounds

Compound	TGI
N#CC(c1ccc(O)cc1)N1CCN(C(C#N)c2ccc(O)cc2)CC1 (stereo not given)	> 100 µM
CN(C)[C@@H]1C(=O)C(C(N)=O)=C(O)[C@@]2(O)C(=O)C3=C(O)c4c(O)cccc4C[C@H]3C[C@@H]12	6.65 µM
O=C(Cc1ccccc1)Oc1ccc2c(-c3ccccc3)c(C(=O)Nc3ccc(Cl)cc3)c(=O)oc2c1	> 100 µM
C=C1C(=O)O[C@H]2[C@H]1CC/C(COC(=O)OCCCCCOC(=O)OC/C1=C/CC[C@@]3(C)O[C@H]3[C@H]3OC(=O)C(=C)[C@@H]3CC1)=C\CC[C@@]1(C)O[C@@H]21	1.08 µM
O=CC1=CCCC2(C1)OCCO2	> 100 µM
CC1OCC2OC(C)OC(C3C4=C(CC(C)(C)CC4=O)OC4=C3C(=O)CC(C)(C)C4)C2O1 (stereo not given)	> 100 µM
On1c(-c2ccccc2)c(-c2c(-c3ccccc3)n(O)c3ccccc23)c2ccccc21	> 100 µM
CO/C(=N\N=C(/C)C(F)(F)F)c1ccncc1	> 100 µM
CN(C)CC1CCC/C(=C\c2ccc(N(C)C)cc2)C1=O (stereo not given)	> 100 µM
O=C(C=P(c1ccccc1)(c1ccccc1)c1ccccc1)C12CC3CC(CC(C3)C1)C2	25.2 µM

====

# Test system: SNB-19 CNS
# Test Protocol: NCI tumour cell line growth inhibition, 48 h; in the data active = GI50 below about 0.43 µM; inactive = the rest
Outcome codes: active, inactive

Compound	Group Label
O=C(c1ccccc1)c1ccc(-c2ccc(O)cc2)cc1	inactive
C[C@@H]1O[C@@H](O[C@H]2C[C@@H](O)[C@]3(CO)C4C(CC[C@]3(O)C2)[C@@]2(O)CC[C@H](C3=CC(=O)OC3)[C@@]2(C)C[C@H]4O)[C@H](O)[C@H](O)[C@H]1O (stereo not given in full)	active
CN(C(=O)C1CCCCC1)c1ccccc1I(=O)=O	inactive
C[C@]12CC[C@H](O)CC1=CC[C@@H]1[C@@H]2CC[C@]2(C)C(=O)/C(=C/c3cccc(OCCCn4ccnc4)c3)C[C@@H]12	inactive
COc1ccc(C(CC(=O)c2ccccc2)C(C(=O)c2ccccc2)C(c2ccc(OC)cc2)C2C(=O)NC(=O)NC2=O)cc1 (stereo not given)	inactive
O=C1Nc2ccc(F)c3c(OCCO)cc(-c4ccc[nH]4)c1c23	inactive
CO/N=C(\c1ccccc1)c1cnn(-c2ccccc2)c1N	inactive
COc1ccc2c(c1)C(=O)c1c-2c(NCCCN(C)C)nc2ccccc12	inactive
O=C(NCc1cn(Cc2cccc(Oc3ccccc3)c2)nn1)c1cccnc1Nc1ccccc1	inactive
CCOc1ccc(NC(=O)Nc2cc(C(C)C)ccc2C)cc1	inactive

====

# Tested on: UACC-257 melanoma
# Test Protocol: NCI tumour cell line growth inhibition, 48 h
Where a SMILES comes first, the peptide text is derived from it. [ ]: non-standard residue; d: D form. The star is where a group is joined. hSer = N[CH](CCO)C(=O)O; Boc = CC(C)(C)OC(=O)*
Recorded TGI for the following compounds

Compound	TGI
On1c(-c2ccccc2)c(-c2c(-c3ccccc3)n(O)c3ccccc23)c2ccccc21	88.9 µM
COc1c(C2(c3ccc(F)cc3)SCCCS2)c(=O)c1=O	> 100 µM
COc1ccc(C[C@@H]2CN(C(=O)c3ccccc3)[C@H](Cc3ccc(O)cc3)CN2C(=O)c2ccccc2)cc1Br	> 100 µM
COc1c2cc(C(C)(C)C)cc1CSCc1cc(C(C)(C)C)cc(c1OC)CCCCC2	49.1 µM
O=C1c2ccn(CCCCN3CCOCC3)c2C(=O)c2c1c(O)c1ccccc1c2O	27.4 µM
O=C(NCCNCCO)N/N=C/c1cccc([N+](=O)[O-])c1	> 100 µM
CCCC[C@@H]1NC(=O)[C@H](CCCCN)NC(=O)[C@H](CCCNC(=N)N)NC(=O)[C@H](CC(C)C)NC(=O)[C@@H](NC(=O)[C@H](Cc2cccc(Cl)c2)NC(=O)[C@@H]2CCCN2C(=O)[C@@H](NC(C)=O)C(C)C)CCSSC[C@@H](C(=O)N[C@@H](CCCCN)C(=O)N2CCC[C@H]2C(=O)N2CCC[C@H]2C(=O)N[C@@H](CCC(=O)O)C(N)=O)NC(=O)[C@H](Cc2ccccc2)NC(=O)[C@H](CO)NC(=O)[C@H](C)NC(=O)[C@@H]2CCCN2C1=O	> 50 µM
COC(=O)[C@]1(C)CCCn2c(=O)n(-c3ccccc3)c(=O)n21	> 100 µM
COc1c2nc(CCl)n(C)c(=O)c2c(OC)c2c(=O)n(C)c(CCl)nc12	5.24 µM
COC(=O)c1cnc2nc(N3CCOCC3)[nH]n2c1=O	> 100 µM
COc1ccc(/C=C2/CN(C(=O)c3ccccc3F)C/C(=C\c3ccc(OC)cc3)C2=O)cc1	13.3 µM
COC1=CC(c2ccc[nH]2)=N/C1=C\c1[nH]c(C)c(C(=O)CCC(=O)Oc2ccc3c(c2)CCC2C3CC[C@]3(C)C(=O)CC[C@@H]23)c1C (some centres not stated)	> 100 µM
COCCC(NC(=O)C(CC(C)C)NC(=O)OC(C)(C)C)C(N)=O (stereo not drawn) (Boc-Leu-[hSer](Me)-NH2; configuration not given here)	> 100 µM
COc1ccc2c(O)c3[n+](cc2c1OC)CCc1cc2c(cc1-3)OCO2	> 100 µM
CSc1n[nH]c(N)c1C(=O)Nc1ccc(Cl)cc1	> 100 µM
O=S(=O)(c1cccc(C(F)(F)F)c1)N1c2ccccc2-n2cccc2C1c1cccnc1 (configuration not stated)	> 54.6 µM
COC(=O)/C(=C/c1ccc(OC)cc1)C(C(=O)O)=C(C)C	> 100 µM
CCOC(C)OCC#CCCBr (configuration not stated)	> 100 µM
O=c1/c(=C/c2cccc3ccccc23)sc2nc3ccccc3n12	> 100 µM
COc1ccc2c(c1O)-c1c(OC)c(OC)cc3c1[C@H](C2)[N+](C)(C)CC3	> 100 µM
CN(C)CCNC(=O)c1ccc2ccc3cccnc3c2n1	35.4 µM
COC(=O)N1[C@H]2Cc3c(OC)c(C)c(OC)c(OC)c3[C@@H]1/C(=C\c1cc(OC)c(OC)c(C)c1OC)N(Cc1ccccc1)C2=O	> 100 µM
[N-]=N[N+]#I1OC(C(F)(F)F)(C(F)(F)F)c2ccccc21	75.9 µM
Cc1cc(-c2ccc(C(=O)C(Cl)(Cl)Cl)[nH]2)on1	> 100 µM
COC(=O)C(=O)C(C(=O)C(=O)Nc1ccccc1C(=O)OC)c1nc2ccc(C(=O)c3ccccc3)cc2[nH]c1=O (configuration not stated)	> 100 µM
O=C1N[C@H]2c3c(Cl)sc(Cl)c3C(=O)[C@H]2O1	36.2 µM
O=S(=O)(Nc1ccc(-c2nc(-c3cccc(OCCN4CCOCC4)c3)c(-c3ccnc(Br)c3)[nH]2)cc1)c1ccccc1	12 µM
O=C1Nc2ccc(F)c3c(OCCO)cc(-c4ccc[nH]4)c1c23	17.9 µM
c1ccc2c(c1)O[As](O[As]1Oc3ccccc3O1)O2	9.88 µM
Cc1c(C)c(C)c(-n2c(=O)n(C)c(=O)n2C(C)(C)C)c(C)c1C	> 100 µM
CCC1(O)C=CC(=O)C=C1	> 52.5 µM
COc1ccc(NC(=S)NN=C(C)c2cccc(C(C)=NNC(=S)Nc3ccc(OC)cc3)n2)cc1	> 100 µM
Cn1ncc2c(Nc3ccc(Br)cc3)nc(Nc3ccc(Br)cc3)nc21	18.8 µM
C[N+]1(C)CC=C(N2CCOCC2)CC1	> 10 µM
O=CC1=CCCC2(C1)OCCO2	> 100 µM
O=C(/C=C/c1ccc(OCCCCCCCCCCOc2ccc(/C=C/C(=O)c3ccc(Cl)cc3)cc2)cc1)c1ccc(Cl)cc1	> 100 µM
O=C(NO)c1ccc(C(=O)NO)cc1	> 100 µM
